src = ChEMBL document CHEMBL1146219

System: Brain
assay_remarks: Biodistribution in brain of B16F0 tumor bearing C57BL/6J mouse at 0.37-0.74 MBq, iv after 24 hrs
Assay type: ADME, organism-based
test_settings: in vivo
Reported Drug uptake by item:
Provide a numeric answer, followed by its unit.

Before answering, review these 4 worked examples.
# molecule, tgt, Drug uptake
rows = [
    ("CCN(CC)CCNC(=O)c1ccccc1[123I]", "Brain", "0.01 % ID/g"),
    ("CCCN(CCC)CCCCNC(=O)c1cc([123I])c(NC(C)=O)cc1OC", "Brain", "0.01 % ID/g"),
    ("CCCCN(C)CCCCNC(=O)c1cc([123I])c(NC(C)=O)cc1OC", "Brain", "0.01 % ID/g"),
    ("CCCN(CCC)CCCCNC(=O)c1ccc([123I])cc1", "Brain", "0.04 % ID/g"),
]

Then there is this molecule:
Specify measured Drug uptake for COc1cc(NC(C)=O)c([123I])cc1C(=O)NCCCCN(C)C(C)C .
0.07 % ID/g
